test system: SNK-6 (IL-2 2.5 ng/mL); assay: percent inhibition of viability; higher = more inhibition; details: 72 h; 1 nM
percent inhibition of viability by entry:
Enter your answer as a number in %; do not include the unit.

* Nc1nc(N)c2nc(-c3cccc(O)c3)c(-c3cccc(O)c3)nc2n1 [TG100-115] (max concentration tested 10000 nM) | 0.36
* Nc1ncn([C@H]2C[C@H](O)[C@@H](CO)O2)c(=O)n1 [Decitabine] (max concentration tested 10000 nM) | 3.81
* CNC(=O)CN1CCC(Oc2cc3c(Nc4cccc(Cl)c4F)ncnc3cc2OC)CC1 [Sapitinib] (max concentration tested 1000 nM) | 16.8

The reported percent inhibition of viability of the compound CC(=O)O[C@H]1C(=O)[C@@]2(C)[C@H]([C@H](OC(=O)c3ccccc3)[C@]3(O)C[C@H](OC(=O)[C@H](O)[C@@H](NC(=O)c4ccccc4)c4ccccc4)C(C)=C1C3(C)C)[C@]1(OC(C)=O)CO[C@@H]1C[C@@H]2O [Paclitaxel] (max concentration tested 1000 nM) was -3.54

percent inhibition of viability reported for this compound CCc1cc2c(cc1N1CCC(N3CCOCC3)CC1)C(C)(C)c1[nH]c3cc(C#N)ccc3c1C2=O [Alectinib] (max concentration tested 1000 nM) : -0.7

CNC(=O)c1cc(COc2nnc(Nc3ccc(Cl)cc3)c3ccoc23)ccn1 [Telatinib] (max concentration tested 10000 nM) has a reported percent inhibition of viability of -6.76

====

system: NK-92 (IL-2 2.5 ng/mL); assay: drug sensitivity score (DSS) (DSS units); higher = more sensitive; extreme values may be limits of the assay; settings: 72 h
measured-metric: drug sensitivity score
A bare number is all that is needed in reply.

Recorded drug sensitivity score, per entry:
• CCOc1ccn(-c2ccc(F)cc2)c(=O)c1C(=O)Nc1ccc(Oc2ccnc(N)c2Cl)c(F)c1 (max concentration tested 2500 nM) = 0.14
• O=C(O)CCCCC(CCSCc1ccccc1)SCc1ccccc1 (centres undefined) [CPI-613] (max concentration tested 10000 nM) = 1.68
• Clc1ccc(C(c2ccccc2Cl)C(Cl)Cl)cc1 (centres undefined) [Mitotane] (max concentration tested 10000 nM) = 0

// switching to the query compound
drug sensitivity score measured on COc1cc2/c(=N/c3ccc(Br)cc3F)nc[nH]c2cc1OCC1CCN(C)CC1 [Vandetanib] (max concentration tested 1000 nM) = 0

====

tested on: KAI3 (IL-2 2.5 ng/mL); assay: drug sensitivity score (DSS) (DSS units); higher = more sensitive; extreme values may be limits of the assay; settings: 72 h
measured-metric: drug sensitivity score

Look over these answered cases.
* O=C(Nc1cccc(C(F)(F)F)c1)Nc1cc(S(=O)(=O)NC2CC2)ccc1-c1ccsc1 [AGI-6780] (max concentration tested 10000 nM) | 0.81
* Nc1nc(N)c2nc(-c3cccc(O)c3)c(-c3cccc(O)c3)nc2n1 [TG100-115] (max concentration tested 10000 nM) | 0

Recorded result, Cn1cc(-c2cnn3c(N)c(Br)c([C@@H]4CCCNC4)nc23)cn1 [MK-8776] (max concentration tested 2500 nM) , drug sensitivity score: 7.81

====

percent inhibition of viability listing for selected compounds.
tested on: NK-YS (IL-2 2.5 ng/mL); experiment: percent inhibition of viability; higher = more inhibition; conditions: 72 h; 10000 nM
Express the result in % but write the number alone.

# annotated cases, reported percent inhibition of viability shown
• CNC(=O)c1cc(COc2nnc(Nc3ccc(Cl)cc3)c3ccoc23)ccn1 [Telatinib] (max concentration tested 10000 nM) = 18
• Cc1cnc(Nc2ccc(OCCN3CCCC3)cc2)nc1Nc1cccc(S(=O)(=O)NC(C)(C)C)c1 (max concentration tested 10000 nM) = 108
• Nc1nc(F)nc2c1ncn2[C@@H]1O[C@H](CO)[C@@H](O)[C@@H]1O [Fludarabine] (max concentration tested 10000 nM) = 12.8
• CN1CCC(CNc2ccc3ncc(-c4cccc(OC(F)(F)F)c4)n3n2)CC1 [SGI-1776] (max concentration tested 10000 nM) = 105
• NC(=O)N1CCC(CC(=O)N2CCC([C@H]3c4ncc(Br)cc4CCc4cc(Cl)cc(Br)c43)CC2)CC1 [Lonafarnib] (max concentration tested 10000 nM) = 79.7

So, COc1cc(C(=O)O)ccc1NC(=O)[C@@H]1N[C@@H](CC(C)(C)C)[C@](C#N)(c2ccc(Cl)cc2F)[C@H]1c1cccc(Cl)c1F [RG7388] (max concentration tested 10000 nM) ? Its percent inhibition of viability was 99.9

// sample CNC(=O)c1cc(Oc2ccc(NC(=O)Nc3ccc(Cl)c(C(F)(F)F)c3)c(F)c2)ccn1 [Regorafenib] (max concentration tested 10000 nM) , its percent inhibition of viability was 67

get_value(item= C#Cc1cccc(Nc2ncnc3cc(OC)c(OCCCCCCC(=O)NO)cc23)c1 [CUDC-101] (max concentration tested 10000 nM) , readout=percent inhibition of viability) returns 105

Looking up c1ccc2c(CCNc3ccc(Nc4ccncc4)cc3)c[nH]c2c1 [Serdemetan] (max concentration tested 10000 nM) , I see its percent inhibition of viability listed as 93.6

====

system: normal primary NK cells, pool 2 (3 donors) (IL-2 2.5 ng/mL); assay: percent inhibition of viability; higher = more inhibition; conditions: 72 h; 10 nM
Recorded percent inhibition of viability by entry

- CS(=O)(=O)c1ccc(C(=O)Nc2ccc(Cl)c(-c3ccccn3)c2)c(Cl)c1 [Vismodegib] (max concentration tested 10000 nM): 8.63%
- Cc1cc(C)c(CNC(=O)c2cc(-c3ccc(CN4CCOCC4)cc3)cc3c2cnn3C2CCCC2)c(=O)[nH]1 [EPZ-5687] (max concentration tested 10000 nM): -5.37%

Now take the following molecule into account.
Tested on normal primary NK cells, pool 2 (3 donors) (IL-2 2.5 ng/mL), the item CC(C)[C@H]1C(=O)N[C@@H](CCCNC(=N)N)C(=O)NCC(=O)N[C@@H](CC(=O)O)C(=O)N[C@H](Cc2ccccc2)C(=O)N1C [Cilengitide] (max concentration tested 10000 nM) showed percent inhibition of viability equal to -4.43%

====

test system: SNK-6 (IL-2 2.5 ng/mL); assay: percent inhibition of viability; higher = more inhibition; settings: 72 h; 100 nM
measured-metric: percent inhibition of viability

- CNC(=O)c1cc(COc2nnc(Nc3ccc(Cl)cc3)c3ccoc23)ccn1 [Telatinib] (max concentration tested 10000 nM): -10.9%
- CCCCc1nc2cc(/C=C/C(=O)NO)ccc2n1CCN(CC)CC [Pracinostat] (max concentration tested 10000 nM): 17.8%

For CC(C)(C)c1cc(NC(=O)Nc2ccc(-c3cn4c(n3)sc3cc(OCCN5CCOCC5)ccc34)cc2)no1 [Quizartinib] (max concentration tested 1000 nM) the compound record lists percent inhibition of viability as -27.8%

These entries and their values trace back to the supplement of paper PMC5908809.
